Reference source: the supplement of paper PMC11732987

- tested-on: PRPF8 (UniProt Q6P2Q9)
- assay-summary: log2 ratio of Biotin-Ahx-Ub-VS probe labelling (fragment/DMSO); higher = less target engagement (more negative = stronger competition), active = hit call of the paper (q ≤ 0.05, log2 ratio ≤ -1)
- setup-conditions: compound concentration: 200 uM; treatment time: 3 h
log2 ratio of Biotin-Ahx-Ub-VS probe labelling below -0.04 gives F; log2 ratio of Biotin-Ahx-Ub-VS probe labelling at or above it gives T.

Evaluate Cc1cc(Cl)ccc1NC(=O)CCl : log2 ratio of Biotin-Ahx-Ub-VS probe labelling at minimum -0.04?
T

And then O=C(CCl)N1CCOC(CCc2ccccc2)C1 (stereo not drawn) , what is it?
T

// repeat for Cl.O=C(CCl)N1CCC(Cc2nccs2)C1 (stereo not drawn) and report
F

Do the same for O=C(CCl)N1c2ccccc2NC(=O)C12CCCC2 please
F

Another: Cc1nc(CN2CCCN(C(=O)CCl)CC2)no1.Cl
T

Please give the result for O=C(O)C1Cc2ccccc2CN1C(=O)CCl (stereo not drawn) too.
F

Try this compound next: Cl.O=C(CCl)N1CCCC(c2ncc[nH]2)C1 (stereo not drawn)
F

Now give it for Cc1ccc2nnc(CNC(=O)CCl)n2c1 too.
T
